Eos overview
organism: Rattus norvegicus; assay: Open TG-GATES - Regimen: Daily Repeat; assay type: toxicity, organism-based, Sprague-Dawley; parameters: regimen Daily Repeat, gender Male, age 6 weeks; details: in vivo, po, 0 mg/kg, […], tissue Blood, route gavage, dose level Control, time 28 day
endpoint-label: Eos (%)

* Cn1c(=O)c2c(ncn2C)n(C)c1=O | 1.2
* Cc1cnc(NC(=O)C2=C(O)c3ccccc3S(=O)(=O)N2C)s1 | 1
* Cn1cnc([N+](=O)[O-])c1Sc1ncnc2nc[nH]c12 | 1
* C=CCO | 1
* COc1ccc(O)c(C(C)(C)C)c1.COc1ccc(O)cc1C(C)(C)C [BUTYLATED HYDROXYANISOLE] | 0.9

Origin of values: ChEMBL document CHEMBL3885861
